Taken from PubChem BioAssay (NCI).

Overview of reported growth inhibition across a group of compounds:
- TEST_DESCRIPTION: NCI Yeast Anticancer Drug Screen. Data for the cln2 rad14 strain (AID 165);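 note: 0% = growth equal to vehicle treated cultures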
- PARTICULARS: S. cerevisiae cln2 rad14 strain, at 5.0 µM (retest, dose inferred, filed as 0.5), hits give high values
This is part of a sample that, as a whole, favours compounds with a hit. Of some 79,000 tested, about 15% had one in any assay.
State just the number; it will be interpreted in %.

The following compounds have reported results that may help.
Cc1ccc(O)cc1CCCCO	-2
O=C(Nc1cc(Cl)c(Cl)cc1Cl)C(=O)C(C(=O)c1ccc2ccccc2c1)C1OC(=O)c2ccccc21 (stereo not drawn)	6
CN(Cc1cc(C(C)(C)C)cc(Br)c1O)Cc1cc(C(C)(C)C)cc(Br)c1O	-11
N=C(N)Sc1ccc([N+](=O)[O-])cc1Cl	36
Cc1ccccc1NC(=S)N/N=C(/c1ccccc1)c1ccccn1	-38

Please give the measured growth inhibition for this compound: "CCCCN1CCN(c2ccc([N+](=O)[O-])c3no[n+]([O-])c23)CC1"
43

Could you share which growth inhibition value was measured for "Nc1nn2c(C(Br)Br)cc(C(Br)Br)nc2c1[N+](=O)[O-]" ?
99

Item "COc1ccc(NC(=O)Nc2ccc(Cl)cc2)nn1" has what recorded growth inhibition?
-14

growth inhibition for "O=C(/C=C/c1cccc2ccccc12)c1cccc([N+](=O)[O-])c1" ?
7

Endpoint output: growth inhibition of "Oc1ccc(-c2nnc(-c3ccc(Cl)cc3Cl)o2)cc1" . Value?
2

Fill in the blank: the reported growth inhibition of "OCCC1CCN(CC/C=C2/c3ccc(F)cc3Sc3ccc(C(F)(F)F)cc32)CC1" is ____.
18

For "CN(C)c1ccc(-c2c(C#N)c(S)n(NS(=O)(=O)c3ccccc3)c(=O)c2C#N)cc1" , what is its reported growth inhibition?
50

###

Recorded measurements of growth inhibition, one per entry
- TEST_DESCRIPTION: NCI Yeast Anticancer Drug Screen. Data for the bub3 strain (AID 167)
- PARTICULARS: S. cerevisiae bub3 mutant strain, at 5.0 µM (retest, dose inferred, filed as 0.5), hits give high values
This is part of a sample that, as a whole, favours compounds with a hit. Of some 79,000 tested, about 15% had one in any assay.
Form entry: value (%) — number only.

The cases that follow already have their growth inhibition on record.
CC(C)(C)C1=NN=C2c3ccccc3C(=O)C21 (stereo unspecified)	19
CCCCN(CCO)CC(O)Cn1cnc2c(N)ncnc21 (stereo unspecified) (tested in a mixture with another compound)	1
CCCCCCCCCCCCCCCCCCOS(=O)(=O)O (tested in a mixture with another compound)	-31

Returns the measured growth inhibition for the input compound. Input: "O=C(/C=C/c1ccc(Cl)c(Cl)c1)CCN1CCN(CCC(=O)/C=C/c2ccc(Cl)c(Cl)c2)CC1"
14

Using the record for "O=c1ccc2c(COc3ccc(Cl)cc3Cl)c3ccc(O)cc3oc-2c1" , report its growth inhibition.
-4

# get_value(readout='growth inhibition', item= CCCCCCCCCCCCCCCCCC[N+]1(C)CCC[N+](C)(CCCCCCCCCCCCCCCCCC)CC1 (stereo unspecified) )
0

Please report the recorded growth inhibition for "COc1cc(-c2oc(C=Nc3ccccc3)c([N+](=O)[O-])c2-c2ccc(O)c(OC)c2)ccc1O" .
5

What does the data say about its growth inhibition? Entry: O=C(CC(O)(c1ccccc1)c1ccc(Cl)cc1)NC(=O)c1ccccc1O (stereo unspecified)
50

Dear colleague, I am looking for the recorded growth inhibition of the following compound: CC(Cc1ccccc1)NNC(C)Cc1ccccc1 (stereo unspecified)
16

Recorded growth inhibition for "O=C1CSC(=S)N1Cc1ccccc1Cl" , please?
-1

Data request, read-out growth inhibition, for "FC(F)(F)c1[nH]nc(-c2cccs2)c1N=NN1CCOCC1"
100

Looking for the measured growth inhibition of "O=C(CBr)c1cc(-c2ccc(Cl)cc2)nc2ccccc12" , can you help?
95

Any idea what growth inhibition was measured for CN1C(OCc2ccccc2)c2c(ccc3c2OCO3)C2C=Cc3cc4c(cc3C21)OCO4 (stereo unspecified) ?
93

Looking for the measured growth inhibition of COc1ccccc1NC(c1ccccc1)c1ccc2cccnc2c1O (stereo unspecified) , can you help?
-5

What value of growth inhibition has been reported for the following compound? Cc1cc(=O)oc2c3c(ccc12)OC(c1ccc(Br)cc1)CC3=O (stereo unspecified)
24
